# Tested on: T cell lines obtained from HDM allergic individuals and non-allergics
# Experimental Details: In vitro T cell proliferation test in T cell lines (Example 3)
# Type: cell-based, human
# Condition Label: T cell lines from non-allergics (n=8); 0.5 or 2 ug/ml; 72 h
// % responders of in-vitro T cell proliferation test, Non-allergics lookup, one value per entry
Answer with a number only, understood to be in %.

A017: house dust mite protein; SEQ ID NO: 21 (Der f), 25 (Der p), 313 (Blo t) (protein) MSSSSGKKYDFSGKVALVTGSSSGIGAAIALQFAQYGAQVTITGRDAAALESVAKRIEAESGHQPLQIVGNLLDQSLPAKLIDGTISKYGRLDFLVNNAGFSTQHRDIHDEKLMEAFDQVYGLNVRAVVQLSQLAATHLEKSKGNIINISSNLSMMPVHIIYSSSKAALDMITKTMAMEFGKKGVRVNSINPGPVATQFMRSLGMPVTFLKENEEFVKELTLLKFVAQPVEIANLASFLASDDARNMTGSIVVNDTGSLLAPRVDFKKLDEIKKK | 0

Query molecule follows.
What value of % responders of in-vitro T cell proliferation test, Non-allergics has been reported for the following molecule? Derp1: major house dust mite allergen, group 1, Dermatophagoides pteronyssinus; control (protein, UniProt P08176 99-320, looked up) Peptidase 1: TNACSINGNAPAEIDLRQMRTVTPIRMQGGCGSCWAFSGVAATESAYLAYRNQSLDLAEQELVDCASQHGCHGDTIPRGIEYIQHNGVVQESYYRYVAREQSCRRPNAQRFGISNYCQIYPPNVNKIREALAQTHSAIAVIIGIKDLDAFRHYDGRTIIQRDNGYQPNYHAVNIVGYSNAQGVDYWIVRNSWDTNWGDNGYGYFAANIDLMMIEEYPYVVIL
13
